- System: SARS-CoV
- experiment-description: Antiviral activity against SARS coronavirus Urbani infected in monkey Vero E6 cells assessed as reduction in virus-induced cytopathogenicity incubated for 48 hrs by CellTiter-Glo luminescent cell viability assay
- Format: functional, organism-based
- condition-summary: Severe acute respiratory syndrome-related coronavirus, Vero C1008, 48 h
metric: pEC50
# reply with the number alone; pEC50 is -log10 of concentration in mol/L

get_value(item= Cc1ccc(N)cc1C(=O)N[C@H](C)c1cccc2ccccc12 , readout=pEC50) returns 5.00
